Assay: Toxicokinetics of racemic ketoconazole in another 28-day dog study (b)
Details: male, beagle, dog, plasma, po, 40 mg/kg, AUC(0-12), dogs, study b, powder, 40 mg/kg oral, day 1, M; footnote: AUC data is for 0-24 h
From the text: Two groups of three male and three female dogs per group were studied. Toxicokinetic samples were collected on Day 1 and during Weeks 2 and 4. […] For the following Table: *Days of treatment.
readout-label: AUC(0-t) (µg·h/mL)
API: value field is a number in µg·h/mL; no unit string.

The compound CC(=O)N1CCN(c2ccc(OCC3COC(Cn4ccnc4)(c4ccc(Cl)cc4Cl)O3)cc2)CC1 (racemic) [Racemic ketoconazole] showed AUC(0-t) equal to 180

###

Assay: Toxicokinetics in the 28 day dog study of DIO-902 (with racemic ketoconazole group a)
Settings: male, beagle, plasma, po, 2 mg/kg, AUC(0-12), dogs, 2 mg/kg oral, day 1, M, n = 1
readout-label: AUC(0-t)
Number plus unit, in that order.

// AUC(0-t) value for CC(=O)N1CCN(c2ccc(OC[C@@H]3CO[C@@](Cn4ccnc4)(c4ccc(Cl)cc4Cl)O3)cc2)CC1 [DIO-902] : 2390 ng·h/mL

###

Assay: Toxicokinetics of racemic ketoconazole in another 28-day dog study (b)
Conditions: female, beagle, dog, plasma, po, 10 mg/kg, Drug concentration in plasma, dogs, study b, powder, 10 mg/kg oral, day 28, F, 2 h
readout-label: concentration at 2 h (ng/mL)
Express the result in ng/mL but write the number alone.

# compound CC(=O)N1CCN(c2ccc(OCC3COC(Cn4ccnc4)(c4ccc(Cl)cc4Cl)O3)cc2)CC1 (racemic) [Racemic ketoconazole] ; its concentration at 2 h = 7210

###

Test: Toxicokinetics in the 28 day dog study of DIO-902 (with racemic ketoconazole group a)
Settings: female, beagle, plasma, po, 2 mg/kg, Drug concentration in plasma, dogs, 2 mg/kg oral, day 1, F, 1 h
readout-label: concentration at 1 h

Lab note: CC(=O)N1CCN(c2ccc(OC[C@@H]3CO[C@@](Cn4ccnc4)(c4ccc(Cl)cc4Cl)O3)cc2)CC1 gave concentration at 1 h of < 250 ng/mL

###

Test: Toxicokinetics of racemic ketoconazole in another 28-day dog study (b)
Details: female, beagle, dog, plasma, po, 10 mg/kg, Drug concentration in plasma, dogs, study b, powder, 10 mg/kg oral, day 28, F, 1 h
readout-label: concentration at 1 h (ng/mL)
Number in ng/mL, nothing else.

Lookup result for CC(=O)N1CCN(c2ccc(OCC3COC(Cn4ccnc4)(c4ccc(Cl)cc4Cl)O3)cc2)CC1 (racemic) [Racemic ketoconazole] ; measured concentration at 1 h: 7280

###

Experiment: Toxicokinetics of racemic ketoconazole in another 28-day dog study (b)
Conditions: female, beagle, dog, plasma, po, 40 mg/kg, Tmax Range, dogs, study b, powder, 40 mg/kg oral, day 1, F
readout-label: Tmax

Consider CC(=O)N1CCN(c2ccc(OCC3COC(Cn4ccnc4)(c4ccc(Cl)cc4Cl)O3)cc2)CC1 (racemic) [Racemic ketoconazole] . Its measured Tmax is 2 to 12 h

###

Assay: Toxicokinetics in the 28 day dog study of DIO-902 (with racemic ketoconazole group a)
Conditions: female, beagle, plasma, po, 20 mg/kg, Drug concentration in plasma, dogs, 20 mg/kg oral, day 28, F, 1 h
readout-label: concentration at 1 h (ng/mL)
Record the value in ng/mL, omitting the unit from your answer.

The recorded concentration at 1 h for CC(=O)N1CCN(c2ccc(OC[C@@H]3CO[C@@](Cn4ccnc4)(c4ccc(Cl)cc4Cl)O3)cc2)CC1 is 1780

###

Test: Toxicokinetics in the 28 day dog study of DIO-902 (with racemic ketoconazole group a)
Conditions: male, beagle, plasma, po, 20 mg/kg, Drug concentration in plasma, dogs, 20 mg/kg oral, day 28, M, 0 h
readout-label: concentration at 0 h (ng/mL)
The figure you give is taken to be in ng/mL; do not add the unit.

Briefly, concentration at 0 h measured for CC(=O)N1CCN(c2ccc(OC[C@@H]3CO[C@@](Cn4ccnc4)(c4ccc(Cl)cc4Cl)O3)cc2)CC1 [DIO-902] : 1190

###

Test: Toxicokinetics in the 28 day dog study of DIO-902 (with racemic ketoconazole group a)
Details: female, beagle, plasma, po, 2 mg/kg, Drug concentration in plasma, dogs, 2 mg/kg oral, day 28, F, 8 h
readout-label: concentration at 8 h

Form: molecule = CC(=O)N1CCN(c2ccc(OC[C@@H]3CO[C@@](Cn4ccnc4)(c4ccc(Cl)cc4Cl)O3)cc2)CC1 ; concentration at 8 h = < 250 ng/mL

###

Test: Toxicokinetics of racemic ketoconazole in another 28-day dog study (b)
Settings: male, beagle, dog, plasma, po, 40 mg/kg, Drug concentration in plasma, dogs, study b, powder, 40 mg/kg oral, day 1, M, 2 h
Source text: Two groups of three male and three female dogs per group were studied. Toxicokinetic samples were collected on Day 1 and during Weeks 2 and 4. […] For the following Table: *Days of treatment.
readout-label: concentration at 2 h (ng/mL)
Respond numerically; units are ng/mL and should not be typed.

For record CC(=O)N1CCN(c2ccc(OCC3COC(Cn4ccnc4)(c4ccc(Cl)cc4Cl)O3)cc2)CC1 (racemic) [Racemic ketoconazole] the listed concentration at 2 h is 14600

###

Assay: Toxicokinetics in the 28 day dog study of DIO-902 (with racemic ketoconazole group a)
Conditions: male, beagle, plasma, po, 20 mg/kg, AUC(0-12), dogs, group a: 20 mg/kg oral (after 40 mg/kg days 1-9, pause), day 28, M, n = 1
readout-label: AUC(0-t) (ng·h/mL)
Your answer should be a plain number; it is taken to be in ng·h/mL.

Documented AUC(0-t) of CC(=O)N1CCN(c2ccc(OCC3COC(Cn4ccnc4)(c4ccc(Cl)cc4Cl)O3)cc2)CC1 (racemic) [Racemic ketoconazole] : 3420

###

Assay: Toxicokinetics in the 28 day dog study of DIO-902 (with racemic ketoconazole group a)
Settings: female, beagle, plasma, po, 40 mg/kg, Tmax Range, dogs, group a: 40 mg/kg oral, day 1, F
readout-label: Tmax

CC(=O)N1CCN(c2ccc(OCC3COC(Cn4ccnc4)(c4ccc(Cl)cc4Cl)O3)cc2)CC1 (racemic) [Racemic ketoconazole] has a reported Tmax of 4 to 8 h

###

Assay: Toxicokinetics in the 28 day dog study of DIO-902 (with racemic ketoconazole group a)
Conditions: male, beagle, plasma, po, 6.5 mg/kg, Cmax, dogs, 6.5 mg/kg oral, day 28, M
readout-label: Cmax (ng/mL)
# output: bare number, implied unit ng/mL

Briefly, Cmax measured for CC(=O)N1CCN(c2ccc(OC[C@@H]3CO[C@@](Cn4ccnc4)(c4ccc(Cl)cc4Cl)O3)cc2)CC1 : 2010

###

Test: Toxicokinetics in the 28 day dog study of DIO-902 (with racemic ketoconazole group a)
Details: male, beagle, plasma, oral, 20 mg/kg, Drug concentration in plasma, dogs, group a: 20 mg/kg oral (after 40 mg/kg days 1-9, pause), day 28, M, 12 h
readout-label: concentration at 12 h

The molecule CC(=O)N1CCN(c2ccc(OCC3COC(Cn4ccnc4)(c4ccc(Cl)cc4Cl)O3)cc2)CC1 (racemic) [Racemic ketoconazole] showed concentration at 12 h equal to < 250 ng/mL

###

Experiment: Toxicokinetics of racemic ketoconazole in another 28-day dog study (b)
Settings: male, beagle, dog, plasma, po, 40 mg/kg, Drug concentration in plasma, dogs, study b, powder, 40 mg/kg oral, day 1, M, 4 h
readout-label: concentration at 4 h (ng/mL)
Report the value in ng/mL with no unit label.

Entry under test: CC(=O)N1CCN(c2ccc(OCC3COC(Cn4ccnc4)(c4ccc(Cl)cc4Cl)O3)cc2)CC1 (racemic) [Racemic ketoconazole] . Its concentration at 4 h was 23100

###

Assay: Toxicokinetics in the 28 day dog study of DIO-902 (with racemic ketoconazole group a)
Details: female, beagle, plasma, po, 2 mg/kg, Drug concentration in plasma, dogs, 2 mg/kg oral, day 28, F, 2 h
readout-label: concentration at 2 h (ng/mL)
API: value field is a number in ng/mL; no unit string.

Form field concentration at 2 h, entry CC(=O)N1CCN(c2ccc(OC[C@@H]3CO[C@@](Cn4ccnc4)(c4ccc(Cl)cc4Cl)O3)cc2)CC1 [DIO-902] : 520

###

Experiment: Toxicokinetics in the 28 day dog study of DIO-902 (with racemic ketoconazole group a)
Settings: male, beagle, plasma, po, 2 mg/kg, Drug concentration in plasma, dogs, 2 mg/kg oral, day 1, M, 4 h
readout-label: concentration at 4 h

Field concentration at 4 h (entry CC(=O)N1CCN(c2ccc(OC[C@@H]3CO[C@@](Cn4ccnc4)(c4ccc(Cl)cc4Cl)O3)cc2)CC1 ) reads < 250 ng/mL

###

Assay: Toxicokinetics in the 28 day dog study of DIO-902 (with racemic ketoconazole group a);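 note: beagle dogs dosed orally once daily within a 28-day GLP study, 3 animals per sex per group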
Details: female, beagle, plasma, po, 20 mg/kg, Drug concentration in plasma, dogs, 20 mg/kg oral, day 1, F, 0 h
readout-label: concentration at 0 h

Reported concentration at 0 h for CC(=O)N1CCN(c2ccc(OC[C@@H]3CO[C@@](Cn4ccnc4)(c4ccc(Cl)cc4Cl)O3)cc2)CC1 [DIO-902] was < 250 ng/mL
